The reported numbers originate from PubChem BioAssay (NCI).

test: NCI Yeast Anticancer Drug Screen. Data for the mlh1 rad18 strain (AID 175); settings: S. cerevisiae mlh1 rad18 strain growth inhibition; at 50.0 µM; active compounds read high
The panel holds about 79,000 compounds, 15% with a hit somewhere; the sample as a whole holds those more often.
property_measured: growth inhibition (%)
Respond with the bare value in %.

Fill in: growth inhibition of CC(=O)[CH-]C(C)=O.F[P-](F)(F)(F)(F)F.[Co+3].[NH-]CC[NH-].[NH-]CC[NH-] is ___ -5.35

Quick one: growth inhibition of NC1CN2CCC1CC2 (stereo unspecified) ? 1.15

// growth inhibition lookup, key: CCCCCC[n+]1noc(N)c1-c1ccc(-c2c(N)on[n+]2CCCCCC)cc1 18.5

Which growth inhibition value is on record for COc1cc(C2(C)CCCCC2)c(OC)cc1C1(C)CCCCC1 ? 9.15

Request the reported growth inhibition associated with CC1(C)N=C(N)N=C(N)N1c1cccc(CCCCc2ccc(S(=O)(=O)F)c(Cl)c2)c1 99.7

GET /values?readout=growth inhibition&item= CCOP(=O)(OCC)/C(C#N)=C/c1ccccc1 19.6

Which growth inhibition value is on record for COC12c3ccccc3-c3ccccc3C1[C@@H](C(=O)O)[C@H]2C(=O)O (stereo partly specified) ? -10.3

Which growth inhibition is reported for this compound? CN1C(=O)c2ccccc2NC(=O)C12OC2c1ccccc1 (stereo unspecified) 8.15

Reported growth inhibition, compound CCCCCCCCCNP(=O)(OCc1ccccc1)N(CCCl)CCCl (stereo unspecified) : ____ 26.4

Requested read-out: growth inhibition. Entry: COc1cc2c(c(OC)c1OC)-c1ccc(SC)c(=O)cc1[C@@H](NC(C)=O)CC2 -7.3

Please report the recorded growth inhibition for [N-]=[N+]=CC(=O)c1ccc(Cl)cc1 . 52.2
